The entries below are paired with their reported PBM binding z-score.
Test system: PPARg:RXRa 90nM:30nM, anti-RXR (NR concentration 90 nM, RXRa partner concentration 30 nM)
assay info: PBM binding z-score (relative to random genomic background probes); higher = stronger binding; sequences stand for … in GC…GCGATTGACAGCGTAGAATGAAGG
measured quantity: PBM binding z-score

> print(dat)
                             seq.text                                    system  result.number
1  GCTAGTTGGCCAGTAAAAGGTCACACACCGGTCG  PPARg:RXRa 90nM:30nM, anti-RXR (NR concentration 90 nM, RXRa partner concentration 30 nM)           2.46
2  ACAAGCAGGCCAAGGGTCACTCAAGATTAGTCCG  PPARg:RXRa 90nM:30nM, anti-RXR (NR concentration 90 nM, RXRa partner concentration 30 nM)           7.51
3  CATACAGGGTCAGCTAGGCGAGAGTAGGGACGGC  PPARg:RXRa 90nM:30nM, anti-RXR (NR concentration 90 nM, RXRa partner concentration 30 nM)           1.75

###

System: PXR:RXRa (NR concentration 270 nM, RXRa partner concentration 90 nM)
assay info: PBM binding z-score (relative to random genomic background probes); higher = stronger binding; sequences stand for … in GC…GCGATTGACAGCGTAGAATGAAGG
The entries below are paired with their reported PBM binding z-score.
measured quantity: PBM binding z-score

> print(dat)
                             seq.text  result.number
1  ATCTCTAGGTAAGACCCAGTTCAGTGAAGAACGC            0.9
2  TCTAGTAGGTTACCAATGGGGCATTCAGCTTTCT          0.365
3  ATCGAAAGGTCGTGAGGAGAGTATACAGAAAGGC           3.21
4  GCTAGTTGGTCAGTAAAAGGACACACACCGGTCG         -0.134
5  CCGAGTGGGGCAAAGGTTACCATACTCAGTACGA           2.82
6  CCTATTAGTTGACCATAAGGGCAACCGCAGCTCG          0.705

###

System: THRa homodimer (NR concentration 90 nM)
assay info: PBM binding z-score (relative to random genomic background probes); higher = stronger binding; sequences stand for … in GC…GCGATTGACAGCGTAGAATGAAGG
Use 0.9 as the dividing line for PBM binding z-score, with the line itself on the 1 (yes) side and lower values as 0 (no).

> print(dat)
                             seq.text  category.label
1  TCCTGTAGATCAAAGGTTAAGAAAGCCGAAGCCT          0 (no)
2  CCTACGGGGCCAAAAAGGTCATTGATGCCGATAA          0 (no)
3  CGTCAAAGCTCAAGGTAACGTAACAGAAAGCAGC          0 (no)
4  CCGACTGGGGCCAAGGTTACCATACTCAGTACGA         1 (yes)
5  ATATGTAGGTTAAGGGTCATTCTGGTTGGTTCGC         1 (yes)
6  ACTAGTTGGACAGCTGAGGTCACACACAATTCGG         1 (yes)
7  GGAACGAGGGCATTCGAGTTGATAGAATGGCGAT          0 (no)
8  CGAACTAGGTCATCCAGGACAGAGAATACATTGA         1 (yes)

###

The entries below are paired with their reported PBM binding z-score.
Test system: FXR:RXRa (NR concentration 270 nM, RXRa partner concentration 90 nM)
assay info: PBM binding z-score (relative to random genomic background probes); higher = stronger binding; sequences stand for … in GC…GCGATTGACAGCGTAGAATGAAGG
measured quantity: PBM binding z-score

> print(dat)
                              seq.text    measured.quantity  result.number
 1  GCTCGGAGGACAAGGTCAGAGCCTTGTCCGTAGA  PBM binding z-score           2.67
 2  CGTACTAGGTCAGAACAGGACAGTGAAGGATGAT  PBM binding z-score           1.43
 3  CCTTACGGGTCAAGGTTATAGCACGGGTGGTACG  PBM binding z-score           5.23
 4  CGAACTAGGTCAGAACAGGAGAGTGAAGGATGAT  PBM binding z-score          0.927
 5  GCTGATAGGTCAACTGATGGTCAGCTAAAGCTCG  PBM binding z-score           5.47
 6  CCTACTGGGCCACGAAAGGTCATAGATTCAGTGA  PBM binding z-score           3.74
 7  CCTAGTTGGTCAGGAGGTCAGACACCGGATATGA  PBM binding z-score           2.18
 8  GCTAGTTGGTCAGTAAAAGGTTACACACCGGTCG  PBM binding z-score          0.754
 9  CCTTACGGGACAAGGTTATAGCACGGGTGGTACG  PBM binding z-score          0.441
10  GGAAAGAGGGCAAGTTGATAGCAGAGTTTGATGG  PBM binding z-score            1.6
11  CCTCGGAGGACAGACGGTCAGAGCTGTCCGCTTT  PBM binding z-score         -0.245
12  CAAACTAGATCACCGGAAGGTCAAAGTCCGCATG  PBM binding z-score           3.07
13  ATCTCTAGGTAACAAGTTCAGTGGAAGAGAGGAC  PBM binding z-score          0.589
14  TCTTGTAGATCAAAGGTTAAGAAGGCCGAAGCCT  PBM binding z-score           1.58
15  TTACCAAGGTGAAGGTCGTTGTTCCCTCTGTAGA  PBM binding z-score           1.41
16  TGAATGAGGTTAAAGTTCAGGGAACGTGGCGTCG  PBM binding z-score           5.71
17  GCAGACAGATGAAACGCAGGTAACTCAGGGTGGC  PBM binding z-score         -0.734
18  ATCTCTAGGGAAGACTCAGTTCAGTGAAGAACGC  PBM binding z-score         -0.235
19  CAAACTTGGTCAAGGTCAAAGTCGGTTTGTGCCA  PBM binding z-score           4.61
20  ATCGAAAGGTCGATGTGAGTATAGAGAAAGGGAA  PBM binding z-score           3.06
21  CCTAGTTGGTCAGGATGTCACACACCGGATATGA  PBM binding z-score         -0.184
22  CAAACTAGGTCAAGAGGCCAAAGTCCGCTTCCCG  PBM binding z-score           3.54
23  ATCTCTAGCTAACAAGTTCAGTGAAAGAGAGGAC  PBM binding z-score          0.604
24  ATCGAAAGGTCGACGAGCTGAGTATACACCGTTT  PBM binding z-score           4.14
25  ATCTCTAGGTAAAGTTCAGTGATAGATCGATAGA  PBM binding z-score           1.49
26  CAAACTAGGTCACAGAGGTCCAAGTCCGTGCGTA  PBM binding z-score           4.06
27  CCTATTGGGCCATCAGGTCATTGATATCAACGTT  PBM binding z-score           1.84
28  TCATATAGGTAAACAGGTGACAGTCCGTAAGTTA  PBM binding z-score          0.832
29  TCGAATAGGTTAGTCGGGGCATTCAGCCAACATA  PBM binding z-score          0.693
30  AGAATGAGTTTACCAAAGATCAGGGAAACGCTTG  PBM binding z-score         -0.512
31  ACAGACAGGTGATGAAGCTAACTCAGGCTATCAT  PBM binding z-score         -0.132
32  GCTTACGGGTCAAAGGTAATAGCATGAATAGAAT  PBM binding z-score           6.06
33  TTATCAAGGTGAAGGTCGTTGATCCCTCTGTAGA  PBM binding z-score           2.51
34  CCTACTGGGCCATTCAGAGGTAATTGATCATATG  PBM binding z-score         -0.331
35  TCATATAGGTAAACAGGTGAAAGGCCGTAAGTTA  PBM binding z-score           1.02
36  CCTCGGATGACAACAGGAGGTCAGAGCTGCCAGA  PBM binding z-score          0.859
37  CCTACTGGGCCACGAAAGGTCATTGCTTCAGTGA  PBM binding z-score           3.92
38  TCTTGTAAATCAGCAGGTTAAGAAAGCTGGCCAA  PBM binding z-score          0.256
39  AGAATGAAGTTACCAAAGATCAGGGAAACGCTTG  PBM binding z-score         -0.327
40  ATCTCTAGGTAAAGATAGTTCAGAGAATGCAAAT  PBM binding z-score          0.206
41  CCGAGTAGGTTATGGGGCATACAGGCAACGGTGA  PBM binding z-score          0.216
42  TCATATAGTTAATACAGGTGAAAGTCGGCATCTA  PBM binding z-score           1.36
43  AACTCTAGGTAAAAGTTCAGTGAATCCCGAGGAT  PBM binding z-score           1.13
44  GCTTACGGGTAAAAGGTTATAGCATGAATAGAAT  PBM binding z-score           1.77
45  GGAACCAGGGCAAAGTTGATAGCATCTGTCGACG  PBM binding z-score          0.769
46  CCGATTGGGGCAGAAAGGTTACCATACCATCCGG  PBM binding z-score          0.261
47  ACTGGTTGGTCAGCTGAGGTCACACACAATTCGG  PBM binding z-score           3.86
